EXPERIMENTAL_SYSTEM: rhesus H3 (Macaca mulatta, UniProt Q865E1)
Construct: 445 amino acid H3 receptor
Sequence (Q865E1 1-445): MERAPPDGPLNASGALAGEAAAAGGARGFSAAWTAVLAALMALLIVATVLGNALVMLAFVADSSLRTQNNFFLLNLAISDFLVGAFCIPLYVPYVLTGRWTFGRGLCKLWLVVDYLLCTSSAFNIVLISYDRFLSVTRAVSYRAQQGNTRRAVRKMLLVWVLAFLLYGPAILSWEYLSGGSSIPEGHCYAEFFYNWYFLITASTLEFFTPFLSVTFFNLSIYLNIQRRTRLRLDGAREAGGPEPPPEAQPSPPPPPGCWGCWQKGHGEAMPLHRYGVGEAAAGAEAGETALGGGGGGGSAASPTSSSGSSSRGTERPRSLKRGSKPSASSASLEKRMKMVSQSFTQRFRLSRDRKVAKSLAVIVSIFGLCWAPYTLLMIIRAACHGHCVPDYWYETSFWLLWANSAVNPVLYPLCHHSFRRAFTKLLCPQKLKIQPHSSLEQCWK
METHOD_NOTES: Rhesus H3 [3H]-Methylhistamine radioligand binding assay (SPA, cell membranes)
CONDITION_PARAMETERS: [3H]-Methylhistamine 2 nM, Cheng-Prusoff
READOUT_KIND: Ki (µM)
The figure you give is taken to be in µM; do not add the unit.

Here are 2 compounds together with their reported answers.
{"COMPOUND": "CNC(=O)c1ccc(N2CCc3cc(N4CC[C@H](N5CCC[C@@H]5C)C4)ccc3C2)nc1 [Example 1]", "READOUT_UNIT": "µM", "Ki": 0.00039}
{"COMPOUND": "Cc1ccc(S(=O)(=O)N2CCc3cc(N4CCc5cc(N6CC[C@H](N7CCC[C@@H]7C)C6)ccc5C4)ccc3C2)cc1 [Example 9]", "READOUT_UNIT": "µM", "Ki": 0.18}

Query for rhesus H3 (Macaca mulatta, UniProt Q865E1): what Ki does the record show for C[C@H]1CCCN1[C@H]1CCN(c2ccc3c(c2)CCN(c2cccc(N4CCCC4)n2)C3)C1 [Example 15] ? 0.0048

Query for rhesus H3 (Macaca mulatta, UniProt Q865E1): what Ki does the record show for C[C@H]1CCCN1[C@H]1CCN(c2ccc3c(c2)CCN(c2ccc(C(F)(F)F)cn2)C3)C1 [Example 2] ? 0.029

====

EXPERIMENTAL_SYSTEM: rhesus H3 (Macaca mulatta)
Construct: 445 amino acid H3 receptor
METHOD_NOTES: Rhesus H3 [3H]-Methylhistamine radioligand binding assay (SPA, cell membranes)
CONDITION_PARAMETERS: [3H]-Methylhistamine 2 nM, Cheng-Prusoff
READOUT_KIND: Ki (nM)
The figure you give is taken to be in nM; do not add the unit.

Here are 3 molecules together with their reported answers.
{"MOLECULE": "C[C@H]1CCCN1[C@H]1CCN(c2ccc3c(c2)CCN(c2ccc(F)cn2)C3)C1 [Example 12]", "READOUT_UNIT": "nM", "Ki": 1.3}
{"MOLECULE": "COc1cncc(N2CCc3cc(N4CC[C@H](N5CCC[C@@H]5C)C4)ccc3C2)c1 [Example 10]", "READOUT_UNIT": "nM", "Ki": 0.24}
{"MOLECULE": "Cc1cccc(N2CCc3cc(N4CC[C@H](N5CCC[C@@H]5C)C4)ccc3C2)n1 [Example 4]", "READOUT_UNIT": "nM", "Ki": 0.48}

Now turn to the next molecule.
Query for rhesus H3 (Macaca mulatta): what Ki does the record show for C[C@H]1CCCN1[C@H]1CCN(c2ccc3c(c2)CCN(c2ccc(Cl)cn2)C3)C1 [Example 16] ? 4.6

====

EXPERIMENTAL_SYSTEM: rhesus H3 (Macaca mulatta, UniProt Q865E1)
Construct: 445 amino acid H3 receptor; expressed in transfected cells; host or cells: Flp-In T-REx 293 Cell Line (Invitrogen), pcDNA5/FRT/TO, induced with tetracycline
METHOD_NOTES: GTPγS radioligand binding assay, inhibition of rhesus H3 constitutive functional activity in cell membranes
Format: biochemical, rhesus monkey (Macacca Mulatta)
CONDITION_PARAMETERS: basal rhesus H3-mediated GTPγS binding
Label t when GTPγS-35 ASSAY % Inverse Agonism >= -20%; otherwise f.

Confirm if GTPγS-35 ASSAY % Inverse Agonism reported for the compound C[C@H]1CCCN1[C@H]1CCN(c2ccc3c(c2)CCN(c2cccnc2Cl)C3)C1 [Example 3] is -20% or above. t

Confirm if GTPγS-35 ASSAY % Inverse Agonism reported for the compound C[C@H]1CCCN1[C@H]1CCN(c2ccc3c(c2)CCNCC3)C1 [Example 17] is -20% or above. t

Confirm if GTPγS-35 ASSAY % Inverse Agonism reported for the compound C[C@H]1CCCN1[C@H]1CCN(c2ccc3c(c2)CCN(c2ccc(C(F)(F)F)cn2)C3)C1 [Example 2] is -20% or above. f

Confirm if GTPγS-35 ASSAY % Inverse Agonism reported for the compound C[C@H]1CCCN1[C@H]1CCN(c2ccc3c(c2)CCN(c2ncc(C(F)(F)F)cc2Cl)C3)C1 [Example 14] is -20% or above. t

Confirm if GTPγS-35 ASSAY % Inverse Agonism reported for the compound Cc1ccc(S(=O)(=O)N2CCc3cc(N4CCc5cc(N6CC[C@H](N7CCC[C@@H]7C)C6)ccc5C4)ccc3C2)cc1 [Example 9] is -20% or above. t

Confirm if GTPγS-35 ASSAY % Inverse Agonism reported for the compound C[C@H]1CCCN1[C@H]1CCN(c2ccc3c(c2)CCN(c2cnc4ccccc4c2)C3)C1 [Example 7] is -20% or above. f

====

EXPERIMENTAL_SYSTEM: Rat H3 (Rattus norvegicus, UniProt Q9QYN8)
Sequence (Q9QYN8 whole entry): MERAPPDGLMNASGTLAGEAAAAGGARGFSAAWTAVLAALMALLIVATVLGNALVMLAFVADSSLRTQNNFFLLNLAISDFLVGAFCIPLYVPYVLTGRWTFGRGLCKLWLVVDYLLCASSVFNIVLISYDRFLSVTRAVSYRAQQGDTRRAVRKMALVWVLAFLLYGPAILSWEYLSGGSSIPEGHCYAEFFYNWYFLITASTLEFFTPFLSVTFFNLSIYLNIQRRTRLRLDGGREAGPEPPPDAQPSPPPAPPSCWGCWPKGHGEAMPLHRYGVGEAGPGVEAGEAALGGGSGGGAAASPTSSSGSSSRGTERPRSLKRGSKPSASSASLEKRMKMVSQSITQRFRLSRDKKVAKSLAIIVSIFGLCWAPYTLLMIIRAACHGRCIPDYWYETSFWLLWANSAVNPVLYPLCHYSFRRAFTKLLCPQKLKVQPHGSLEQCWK
METHOD_NOTES: Rat H3 radioligand binding assay (similar procedure)
CONDITION_PARAMETERS: rat H3, similar procedure to the rhesus binding assay; read-out: Rat H3 Binding ki
pKi: −log10 of the molar value.
Label fulfilled when pKi >= 7; otherwise not fulfilled.

{"COMPOUND": "Cc1cc(C(F)(F)F)cc(N2CCc3cc(N4CC[C@H](N5CCC[C@@H]5C)C4)ccc3C2)n1 [Example 11]", "EXPERIMENTAL_SYSTEM": "Rat H3 (Rattus norvegicus, UniProt Q9QYN8)", "GROUP_LABEL": "fulfilled"}
{"COMPOUND": "Cc1cccc(N2CCc3cc(N4CC[C@H](N5CCC[C@@H]5C)C4)ccc3C2)n1 [Example 4]", "EXPERIMENTAL_SYSTEM": "Rat H3 (Rattus norvegicus, UniProt Q9QYN8)", "GROUP_LABEL": "fulfilled"}
{"COMPOUND": "C[C@H]1CCCN1[C@H]1CCN(c2ccc3c(c2)CCN(c2cccc(N4CCCC4)n2)C3)C1 [Example 15]", "EXPERIMENTAL_SYSTEM": "Rat H3 (Rattus norvegicus, UniProt Q9QYN8)", "GROUP_LABEL": "fulfilled"}
{"COMPOUND": "C[C@H]1CCCN1[C@H]1CCN(c2ccc3c(c2)CCN(c2ccc(C(F)(F)F)cn2)C3)C1 [Example 2]", "EXPERIMENTAL_SYSTEM": "Rat H3 (Rattus norvegicus, UniProt Q9QYN8)", "GROUP_LABEL": "fulfilled"}
{"COMPOUND": "C[C@H]1CCCN1[C@H]1CCN(c2ccc3c(c2)CCN(c2cnc4ccccc4c2)CC3)C1 [Example 18]", "EXPERIMENTAL_SYSTEM": "Rat H3 (Rattus norvegicus, UniProt Q9QYN8)", "GROUP_LABEL": "fulfilled"}
{"COMPOUND": "C[C@H]1CCCN1[C@H]1CCN(c2ccc3c(c2)CCN(c2cccnc2Cl)C3)C1 [Example 3]", "EXPERIMENTAL_SYSTEM": "Rat H3 (Rattus norvegicus, UniProt Q9QYN8)", "GROUP_LABEL": "fulfilled"}
{"COMPOUND": "CNC(=O)c1ccc(N2CCc3cc(N4CC[C@H](N5CCC[C@@H]5C)C4)ccc3C2)nc1 [Example 1]", "EXPERIMENTAL_SYSTEM": "Rat H3 (Rattus norvegicus, UniProt Q9QYN8)", "GROUP_LABEL": "fulfilled"}
{"COMPOUND": "Cc1ccnc(N2CCc3cc(N4CC[C@H](N5CCC[C@@H]5C)C4)ccc3C2)c1 [Example 13]", "EXPERIMENTAL_SYSTEM": "Rat H3 (Rattus norvegicus, UniProt Q9QYN8)", "GROUP_LABEL": "fulfilled"}
{"COMPOUND": "Cc1ccc(S(=O)(=O)N2CCc3cc(N4CCc5cc(N6CC[C@H](N7CCC[C@@H]7C)C6)ccc5C4)ccc3C2)cc1 [Example 9]", "EXPERIMENTAL_SYSTEM": "Rat H3 (Rattus norvegicus, UniProt Q9QYN8)", "GROUP_LABEL": "not fulfilled"}
{"COMPOUND": "CNC(=O)c1ccc(N2CCc3ccc(N4CC[C@H](N5CCC[C@@H]5C)C4)cc3CC2)nc1 [Example 20]", "EXPERIMENTAL_SYSTEM": "Rat H3 (Rattus norvegicus, UniProt Q9QYN8)", "GROUP_LABEL": "fulfilled"}

Confirm if pKi reported for the compound C[C@H]1CCCN1[C@H]1CCN(c2ccc3c(c2)CCN(c2nc4ccccc4o2)C3)C1 [Example 8] is 7 or above. not fulfilled

Confirm if pKi reported for the compound C[C@H]1CCCN1[C@H]1CCN(c2ccc3c(c2)CCN(c2ncc(C(F)(F)F)cc2Cl)C3)C1 [Example 14] is 7 or above. not fulfilled

Confirm if pKi reported for the compound C[C@H]1CCCN1[C@H]1CCN(c2ccc3c(c2)CCN(c2cncnc2)C3)C1 [Example 6] is 7 or above. fulfilled

Confirm if pKi reported for the compound C[C@H]1CCCN1[C@H]1CCN(c2ccc3c(c2)CCN(c2cnc4ccccc4c2)C3)C1 [Example 7] is 7 or above. fulfilled

Confirm if pKi reported for the compound C[C@H]1CCCN1[C@H]1CCN(c2ccc3c(c2)CCN(c2ccc(C(F)(F)F)cn2)CC3)C1 [Example 19] is 7 or above. fulfilled
